Test system: mucus secreted by the respiratory airway
experimental-protocol: antisecretory activity, respiratory mucus secretion
Format: in vivo, albino male New Zealand rabbits
measurement-context: 50 mg/Kg per os, 6 h, vs control group
Known % difference in mucus secretion of a selection of compounds
Express it in %; write the number only.

Below are worked cases with known answers.
>>> result_value("CCOC(=O)c1ccc(NC(=O)Cc2ccc(C(=O)c3ccc(C)cc3)n2C)cc1")
0.0
>>> result_value("Cc1ccc(C(=O)c2ccc(CC(=O)N3CCOCC3)n2C)cc1")
-8
>>> result_value("COc1ccccc1OC(=O)CNC(=O)Cc1ccc(C(=O)c2ccc(C)cc2)n1C")
0.0

In the following, a different compound is considered.
Ask | Query (compound): Cc1ccc(C(=O)c2ccc(CC(=O)N3CCN(C)CC3)n2C)cc1 ; field requested: % difference in mucus secretion
Reply | -5

---

Test system: gastric lesions
Format: in vivo, male Wistar rats
measurement-context: 200 mg/Kg orally, 4 consecutive days
test-readout: % incidence/10 (head is drawing 38)
Just the number, please.

Below are worked cases with known answers.
>>> result_value("Cc1ccc(C(=O)c2ccc(CC(=O)NCC(=O)O)n2C)cc1")
9
>>> result_value("CCOC(=O)c1ccc(NC(=O)Cc2ccc(C(=O)c3ccc(C)cc3)n2C)cc1")
8
>>> result_value("Cc1ccc(C(=O)c2ccc(CC(=O)N3CCN(C)CC3)n2C)cc1")
8
>>> result_value("COc1ccccc1OC(=O)CNC(=O)Cc1ccc(C(=O)c2ccc(C)cc2)n1C")
9

Ask | Query (compound): Cc1ccc(C(=O)c2ccc(CC(=O)N3CCOCC3)n2C)cc1 ; field requested: % incidence/10 (head is drawing 38)
Reply | 9

---

System: brewers' yeast-induced hyperthermia
experimental-protocol: antipyretic activity, brewers' yeast-induced hyperthermia
Format: in vivo, albino male Wistar rats
measurement-context: 50 mg/Kg per os, 2 h
test-readout: % Temperature decrease (%)
Express it in %; write the number only.

Below are worked cases with known answers.
>>> result_value("CCOC(=O)c1ccc(NC(=O)Cc2ccc(C(=O)c3ccc(C)cc3)n2C)cc1")
28.0
>>> result_value("Cc1ccc(C(=O)c2ccc(CC(=O)NCC(=O)O)n2C)cc1")
23.0
>>> result_value("Cc1ccc(C(=O)c2ccc(CC(=O)N3CCN(C)CC3)n2C)cc1")
21.0
>>> result_value("Cc1ccc(C(=O)c2ccc(CC(=O)N3CCOCC3)n2C)cc1")
23.0

Ask | Query (compound): COc1ccccc1OC(=O)CNC(=O)Cc1ccc(C(=O)c2ccc(C)cc2)n1C ; field requested: % Temperature decrease
Reply | 22.0

Ask | Next compound: Cc1ccc(C(=O)c2ccc(CC(=O)NNCC(=O)N3CCN(C)CC3)n2C)cc1
Reply | 23.1

---

Tested on: gastric lesions
Type: in vivo, male Wistar rats
measurement-context: 50 mg/Kg orally, 4 consecutive days; I=mean no. of lesions+mean of severity+% incidence/10
Known gastric damage index of a selection of compounds

Below are worked cases with known answers.
>>> result_value("Cc1ccc(C(=O)c2ccc(CC(=O)NCC(=O)O)n2C)cc1 [Compound 1-c]")
9.5
>>> result_value("Cc1ccc(C(=O)c2ccc(CC(=O)NNCC(=O)N3CCN(C)CC3)n2C)cc1 [Compound 1-o]")
9
>>> result_value("COc1ccccc1OC(=O)CNC(=O)Cc1ccc(C(=O)c2ccc(C)cc2)n1C [Compound 1-d]")
8.5

Ask | Query (compound): Cc1ccc(C(=O)c2ccc(CC(=O)N3CCN(C)CC3)n2C)cc1 [Compound 3-b] ; field requested: gastric damage index
Reply | 9

Ask | Next compound: CCOC(=O)c1ccc(NC(=O)Cc2ccc(C(=O)c3ccc(C)cc3)n2C)cc1 [Compound 1-h]
Reply | 9

Ask | Next compound: Cc1ccc(C(=O)c2ccc(CC(=O)N3CCOCC3)n2C)cc1 [Compound 3-a]
Reply | 9
